# System: Fibroblast
# Experimental details: Incucyte cell viability with human fibroblast; further: filed as whole numbers so only -1 and 0 and 1 occur
# Type: toxicity, cell-based
# Test parameters: 0 h, 10 µM, compound concentration 10 uM, replicate number 1, timepoint 0 hours
Property label: Growth Rate
Reply briefly: the number, and no unit.

The cases that follow already have their Growth Rate on record.
{"columns": ["Structure", "Result value"],
 "data": [
  ["Cc1csc(NC(=O)c2cc(F)cc(Oc3cncnc3)c2)n1", 0],
  ["O=C(O)Cn1c(C(=O)Nc2nc(-c3ccccc3Cl)cs2)cc2ccccc21", 0],
  ["Cc1cc(-n2nc(Cc3cc(F)cc(C(F)(F)F)c3)nc2C)ccc1C(N)=O", 0],
  ["CN(c1ccccc1CNc1nc(Nc2ccc3c(c2)CC(=O)N3)ncc1C(F)(F)F)S(C)(=O)=O", 1]
]}

Note: attention shifts to another entry.
Exercise: Fill in Growth Rate for record CC(C)(C)NC[C@H](O)COc1nsnc1N1CCOCC1
Key: 0

---

Attribute: Population Fragmented Nuclei (%)
# System: Fibroblast
# Experimental details: Multiplex assay against human fibroblast
# Assay type: toxicity, cell-based
# Test parameters: 48 h, 10 µM, compound concentration 10 uM, replicate 2
// return numeric value only (unit: %, not printed)

{"columns": ["Compound", "Reading unit", "Population Fragmented Nuclei (%)"],
 "data": [
  ["CCc1nn(CCCN2CCN(c3cccc(Cl)c3)CC2)c(=O)n1CCOc1ccccc1.Cl [NEFAZODONE HYDROCHLORIDE]", "%", 43]
]}

Exercise: Fill in Population Fragmented Nuclei (%) for record Cc1c[nH]c2nccc(Oc3c(F)cc(Nc4cc(Cl)nc(N)n4)cc3F)c12
Key: 50

Exercise: Fill in Population Fragmented Nuclei (%) for record CC(C)(C)NC[C@H](O)COc1nsnc1N1CCOCC1
Key: 16

Exercise: Fill in Population Fragmented Nuclei (%) for record COc1ccccc1CN[C@H]1C2CCN(CC2)[C@H]1C(c1ccccc1)c1ccccc1
Key: 30

---

Attribute: Population Mitotic Cells (%)
# System: HEK-293T
# Experimental details: Multiplex assay against HEK293T
# Assay type: toxicity, cell-based
# Test parameters: human, 48 h, 1 µM, compound concentration 1 uM, replicate 1
Include the unit after the number when you answer.

The cases that follow already have their Population Mitotic Cells (%) on record.
{"columns": ["Compound", "Assayed system", "Population Mitotic Cells (%)"],
 "data": [
  ["Cl.O=C(O)c1cc(-c2ccc(C3CCNCC3)cc2)c2ccc(-c3ccc(C(F)(F)F)cc3)cc2c1", "HEK-293T", "61%"],
  ["CC(C)c1noc(N2CCC(COc3ccc(-c4ccc(S(C)(=O)=O)cc4)nc3)CC2)n1", "HEK-293T", "62%"]
]}

Exercise: Fill in Population Mitotic Cells (%) for record O=c1cc(N2CCOCC2)oc2c(-c3cccc4c3sc3ccccc34)cccc12
Key: 70%

Exercise: Fill in Population Mitotic Cells (%) for record Cc1ccc2c(c1)c1c(n2CCc2ccc(C)nc2)CCN(C)C1 [LATREPIRDINE]
Key: 40%

Exercise: Fill in Population Mitotic Cells (%) for record CC(C)NC(=O)N1CC[C@H](NC2=Nc3cc(F)ccc3N(CC(F)F)c3ccc(Cl)cc32)C1
Key: 51%

Exercise: Fill in Population Mitotic Cells (%) for record COc1ccc(-c2ccc3ncc4c(c3c2)n(-c2ccc(N3CCNCC3)c(C(F)(F)F)c2)c(=O)n4C)cn1.O=C(O)/C=C\C(=O)O
Key: 25%

Exercise: Fill in Population Mitotic Cells (%) for record Cc1ccc(C)c(Oc2ccncc2C(=O)N2CCN(C3CC3)c3ccccc32)c1
Key: 58%

Exercise: Fill in Population Mitotic Cells (%) for record COc1ccccc1CN[C@H]1C2CCN(CC2)[C@H]1C(c1ccccc1)c1ccccc1
Key: 51%

---

Attribute: Growth Rate
# Tested on: U2OS
# Experimental details: Incucyte cell viability with U2OS; further: filed as whole numbers so only -1 and 0 and 1 occur
# Type: toxicity, cell-based
# Test parameters: human, 24 h, 10 µM, compound concentration 10 uM, replicate number 1, timepoint 24 hours
Reply briefly: the number, and no unit.

{"columns": ["Structure", "Assayed system", "Growth Rate"],
 "data": [
  ["O=C(NCC(=O)N1CCCC1)Nc1ccc2cnccc2c1", "U2OS", 1],
  ["COc1ccc(-c2ccc3ncc4c(c3c2)n(-c2ccc(N3CCNCC3)c(C(F)(F)F)c2)c(=O)n4C)cn1.O=C(O)/C=C\\C(=O)O", "U2OS", 0],
  ["CN(c1ccccc1CNc1nc(Nc2ccc3c(c2)CC(=O)N3)ncc1C(F)(F)F)S(C)(=O)=O", "U2OS", 0],
  ["CNC(=O)Nc1ccc(-c2nc(N3CC4CCC(C3)O4)c3cnn(C4CCC5(CC4)OCCO5)c3n2)cc1", "U2OS", 0]
]}

Note: attention shifts to another entry.
Exercise: Report Growth Rate on U2OS for this entry: O=C(N[C@@H](C1CC1)C(F)(F)F)c1cc(-c2cnn3cc(-c4ccc(F)cc4)cnc23)cs1
Key: 1

---

# Test system: Fibroblast
# Experimental details: Multiplex assay against human fibroblast
# Assay type: toxicity, cell-based
# Test parameters: 12 h, 1 µM, compound concentration 1 uM, replicate 1
Attribute: Population Normal (%)
// return numeric value only (unit: %, not printed)

The cases that follow already have their Population Normal (%) on record.
{"columns": ["Compound", "Reading unit", "Population Normal (%)"],
 "data": [
  ["CNC(=O)Nc1ccc(-c2nc(N3CC4CCC(C3)O4)c3cnn(C4CCC5(CC4)OCCO5)c3n2)cc1", "%", 85],
  ["CC(C)OC(=O)N1CCC(Oc2ncnc3c2cnn3-c2ccc(S(C)(=O)=O)cc2F)CC1", "%", 86],
  ["CNC(=O)Nc1ccc2c(c1)[C@@]1(CC2)OC(=O)N(CC(=O)N(Cc2ccc(F)cc2)[C@@H](C)C(F)(F)F)C1=O", "%", 90]
]}

Exercise: Fill in Population Normal (%) for record CCCSc1nc(N[C@@H]2C[C@H]2c2ccc(F)c(F)c2)c2nnn([C@@H]3C[C@H](OCCO)[C@@H](O)[C@H]3O)c2n1
Key: 90

Exercise: Fill in Population Normal (%) for record CN1CCN(Cc2ccc(Nc3ncc(Cl)c(Nc4ccccc4S(=O)(=O)N(C)C)n3)cc2)CC1
Key: 87

Exercise: Fill in Population Normal (%) for record Cc1ccc(C)c(Oc2ccncc2C(=O)N2CCN(C3CC3)c3ccccc32)c1
Key: 86

Exercise: Fill in Population Normal (%) for record COC(=O)C1=C(C)NC(C)=C(C(=O)OCCCN2CCC(c3ccccc3)(c3ccccc3)CC2)[C@H]1c1cccc([N+](=O)[O-])c1
Key: 87

Exercise: Fill in Population Normal (%) for record COc1ccccc1CN[C@H]1C2CCN(CC2)[C@H]1C(c1ccccc1)c1ccccc1
Key: 86

Exercise: Fill in Population Normal (%) for record O=C(c1cc2c(cc1F)OC(c1ccc(F)cc1)(c1ccc(Cl)cc1Cl)O2)N1CCOCC1 (stereo unspecified)
Key: 86

Exercise: Fill in Population Normal (%) for record CC(C)CC(=O)Nc1[nH]nc2c1CN(C(=O)C1CCN(C)CC1)C2(C)C
Key: 88

---

# System: Fibroblast
# Experimental details: Multiplex assay against human fibroblast
# Type: toxicity, cell-based
# Test parameters: 24 h, 10 µM, compound concentration 10 uM, replicate 1
Attribute: Population Normal (%)
// return numeric value only (unit: %, not printed)

The cases that follow already have their Population Normal (%) on record.
{"columns": ["Structure", "Property label", "Result value"],
 "data": [
  ["CC(C)NC(=O)N1CC[C@H](NC2=Nc3cc(F)ccc3N(CC(F)F)c3ccc(Cl)cc32)C1", "Population Normal (%)", 86],
  ["CCc1ccc(OCc2ccccc2C(=O)Nc2ccc3nc(C)cc(N)c3c2)cc1.Cl", "Population Normal (%)", 49]
]}

Note: attention shifts to another entry.
Exercise: Fill in Population Normal (%) for record Cc1c[nH]c2nccc(Oc3c(F)cc(Nc4cc(Cl)nc(N)n4)cc3F)c12
Key: 78

---

Attribute: Population Normal (%)
# System: U2OS
# Experimental details: Multiplex assay against U2OS
# Type: toxicity, cell-based
# Test parameters: human, 24 h, 1 µM, compound concentration 1 uM, replicate 2
// return numeric value only (unit: %, not printed)

The cases that follow already have their Population Normal (%) on record.
{"columns": ["Molecule", "Property label", "Result value"],
 "data": [
  ["CC(C)c1noc(N2CCC(COc3ccc(-c4ccc(S(C)(=O)=O)cc4)nc3)CC2)n1", "Population Normal (%)", 97],
  ["C=CC(=O)Nc1cccc(Sc2nc(Nc3ccc(N4CCN(C)CC4)cc3)ncc2Cl)c1", "Population Normal (%)", 84],
  ["C[C@]12CC[C@@H]3c4ccc(O)cc4CC[C@H]3[C@@H]1CC[C@@H]2O", "Population Normal (%)", 96],
  ["CC1=C(C(=O)Nc2cc3cn[nH]c3cc2F)C(c2ccc(C(F)(F)F)cc2)CC(=O)N1 (stereo not given)", "Population Normal (%)", 95]
]}

Exercise: Report Population Normal (%) on U2OS for this entry: Cc1ccc(C)c(Oc2ccncc2C(=O)N2CCN(C3CC3)c3ccccc32)c1
Key: 93

Taken from ChEMBL document CHEMBL4689842.
